Biological target: T1, Tryptase, from human lung (human, UniProt Q15661 31-275, limits assumed)
T1 construct: purified natural enzyme, bought
T1 sequence (Q15661 31-275 limits assumed): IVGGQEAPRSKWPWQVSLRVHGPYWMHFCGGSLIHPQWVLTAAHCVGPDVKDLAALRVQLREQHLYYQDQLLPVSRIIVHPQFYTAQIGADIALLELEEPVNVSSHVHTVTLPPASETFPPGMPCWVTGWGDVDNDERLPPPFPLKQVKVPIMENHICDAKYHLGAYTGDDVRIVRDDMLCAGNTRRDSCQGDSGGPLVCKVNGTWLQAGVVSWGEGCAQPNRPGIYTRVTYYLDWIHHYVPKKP
Assay: enzyme inhibition, pNA substrate
[ ]: non-standard residue; d: D form. Gly(octyl) = CCCCCCCC[C@H](N)C(=O)O
propertyMeasured: % inhibition at 100 µM (%)

INSERT INTO measurements (binder, valuereported) VALUES
  ('cyclo([Gly(octyl)]ETASIPPQKY[dP]P) (also called Ex. 156) [Example 156]', 15);
